Where a SMILES comes first, the peptide text is derived from it.
Task for the reader: assign each of the following compounds its reported logP.

Some compounds with recorded logP:
Cc1cccc2c1OCN(CCO[N+](=O)[O-])C2=O    2.48
O=C(Cc1ccccc1)c1c(O)c2ccc(Cl)cc2[nH]c1=O    3.66
CCCCN(C)CC(=O)Nc1c(C)cccc1C    2.74

State the recorded logP for every item in the following list.
1. CCC(C)C(NC(=O)C(CCCNC(=N)N)NC(C)=O)C(=O)NC(Cc1ccccc1)C(N)=O (stereo not drawn) (Ac-Arg-Ile-Phe-NH2; configuration not given here)
2. Cc1ccc(Cc2c[nH]cn2)c(C)c1
3. COc1c2oc(=O)ccc2cc2ccsc12
4. O=C(NO)C(=Cc1ccccc1)C(=O)NCc1ccc(F)cc1
5. COC(=O)C(C)NP(=O)(OCC1C=CC(n2cc(C)c(=O)[nH]c2=O)O1)Oc1cccc(Br)c1 (stereo not drawn)
6. CCCC(=O)OCOC(=O)N(C)N=Nc1ccc(C(=O)OCC)cc1
7. c1ccc(Cn2cnc3ccccc32)cc1
8. CCCCCCNCCO

1: -0.04; 2: 2.7; 3: 2.66; 4: 1.7; 5: 1.64; 6: 4.51; 7: 2.91; 8: 1.67

State the recorded logP for every item in the following list.
1. CC(C)(C)N=O
2. Cc1ccc(Nc2ccncc2S(=O)(=O)NC(=NC#N)NC(C)C)cc1
3. CC(C)C(NC(=O)C(N)Cc1ccccc1)C(=O)O (stereo not drawn) (H-Phe-Val-OH; configuration not given here)
4. O=C1Nc2ccc3cc4ccccc4nc3c2CO1
5. CCC(C)(C)c1ccc(OCC2CN=C(N)O2)cc1 (stereo not drawn)

1. 0.91
2. 1.91
3. -1.68
4. 1.64
5. 3.69

====

Task for the reader: assign each of the following compounds its reported logP.
Give bare numbers.

CC(C)C(NC(=O)C(N)Cc1ccc(O)cc1)C(=O)NC(Cc1ccccc1)C(=O)O (stereo not given)    -1.37

State the recorded logP for every item in the following list.
1. NC(Cc1ccccc1)C(=O)NC(Cc1c[nH]c2ccccc12)C(=O)O (stereo not given)
2. Cc1cc(=O)n(C)c2c1cc(C)c1occ(C)c12
3. CCCC(=NOCC)C1=C(O)CC2(CC(C)CC(C)C2)OC1=O (stereo not given)
4. C=CCN(N=O)C(=O)N(CCC)CCCCC(NC(C)=O)C(=O)NCc1ccccc1 (stereo not given)
5. C=C(C)CC(C)(CCC=C(C)C)OC(C)=O (stereo not given)
6. CC1CC(=O)NN=C1c1ccc(-n2cnc3c2CCCC3)cc1 (stereo not given)

1. -0.79
2. 3.3
3. 4.47
4. 2.11
5. 4.36
6. 2.52

State the recorded logP for every item in the following list.
1. CCCc1nc(N)nc(N2CCCCC2)n1
2. CCOc1ccc(NC(=O)OC(C)c2ccccc2)cc1OCC (stereo not given)
3. CNC=C1c2cccc(O)c2C(=O)c2c(O)cccc21

2.55
3.56
3.55

====

Where a SMILES comes first, the peptide text is derived from it.
Task for the reader: assign each of the following compounds its reported logP.
One number for each entry.

Some compounds with recorded logP:
O=C1N=C(N2CCOCC2)CN1c1ccc(Cl)c(Cl)c1    1.9
CCCc1c(O)c(=O)cc(C)n1C    0.4
CC1CC2C3CCC4=CC(=O)C=CC4(C)C3(F)C(O)CC2(C)C1(O)C(=O)COC(=O)CC1CCCCC1 (stereo not given)    4.95

State the recorded logP for every item in the following list.
1. CCCCC(=O)c1ccncc1
2. S=c1nccc[nH]1
3. Cc1nc2ccccc2c(=O)n1CCC(=O)O
4. Nc1nnnn1-c1c(Cl)cccc1Cl
5. Cc1c(C(=O)O)cccc1[N+](=O)[O-]
6. COC(=O)C(=Cc1ccccc1)S(=O)(=O)c1ccc([N+](=O)[O-])cc1
7. O=C(NC1CCCCCC1)NS(=O)(=O)c1cnccc1NC1CCCCCCC1

1: 2; 2: -1.11; 3: 0.93; 4: 1.56; 5: 2.16; 6: 2.9; 7: 5.35

State the recorded logP for every item in the following list.
1. CC(C)NC(=NC#N)NS(=O)(=O)c1cnccc1NCc1ccccc1
2. CCCCN1CCCC1CNC(=O)c1cc(S(N)(=O)=O)cc2c1OC(C)C2 (stereo not given)
3. Nc1nnnn1-c1cccc2ccccc12
4. CC(C)CC(NC(=O)C(N)C(C)C)C(=O)O (stereo not drawn) (H-Val-Leu-OH; configuration not given here)
5. CCCc1nc(NC(C)C)nc(N2CCOCC2)n1

1.36
2.8
1.72
-2.07
2.26
